assay: soluble on expression in E. coli; label from the status in PepcDB or PDB records
metricName: soluble on expression in E. coli

MNVYNKADSFSLESDSIKDVIHDYICWLSMTDETRPSIGNVFTAMETFKIDAVRYYDGNIYDLAKDINTMSFDSFIRSLQNITSKKDKLTVYGTMGLLSIVVDINKGRDVSNIKFAAGIIILMEYIFDDTDLSHLKIALYRRIQRRYPIDDDR	not soluble
MGKPSGERILQMKIALVMLAAGNSRRFGSNKLLYEIEGKPMYLLTLEKLKKASEKIPESEIIVVTQYEEIVKKAGEMKIPVFINPRPEDGISLSMQIGLMSVRDTDACLFTVSDQPWLEADTVVALTELFENEKKGMACIRWNGKTGNPCIFGQKYYEELMEISGDKGGKKIIKKHPEDVAYLQIRNARELQDADEPDVFTAGNLR	not soluble
MVHKSVESPAFSASIEDYALIGDQQSAALVARDGSIDWLCLPRFDSPACFAALLGDEHNGKWRIAPKGAGPCTRRAYRTDSLVLDSEWDTPEGTLRVTDLMPQRDSAPDLVRIVEGLRGRVTVRSAIRLRFDYGLEHHHHHH	soluble
MGSDKIHHHHHHMHHVVGVRFKKAGKIYYFSPGDLDIPRGESVIVETSRGVEYGNVVIEKKTVGDNDVVLPLKQVIRVATEKDKLAVQENKEAAKKAYDVCVQKIMEHQLDMKLVDVEYTFDRNKVLFYFTADGRIDFRELVKDLASVFRTRIELRQIGVRDEAKMLGGIGPCGRILCCSSFLGDFEPVSIKMAKDQNLSLNPAKISGLCGRLMCCLKYENDMYESAKQELPDLGETIDTPHGKGKVVGLNMLERLVQVHLFEGERVLEFSLEELLERGAVSAEATE	not soluble
SKRVEVLLTQLPAYNRLKTPYEAELIETAKKMTAPGKGLLAADESTGSCSKRFAGIGLSNTAEHRRQYRALMLECEGFEQYISGVILHDETVYQKAKTGETFPQYLRRRGVVPGIKTDCGLEPLVEGAKGEQMTAGLDGYIKRAKKYYAMGCRFCKWRNVYKIQNGTVSEAVVRFNAETLARYAILSQLCGLVPIVEPEVMIDGTHDIETCQRVSQHVWSEVVSALHRHGVVWEGCLLKPNMVVPGAESGLKGHAEQVAEYTVKTLARVIPPALPGVTFLSGGLSEVMASEYLNAMNNCPLPRPWKLTFSYARALQSSAIKRWGGKESGVEAGRRAFMHRAKMNSLAQLGKYNRADDDKDSQSLYVAGNT	soluble
ADVYDIGRGAVMYVAGGKVSWAPRGGNEVKFEPVPKELKLVANRLHTSFPPHHVVDMSKFTFITPGSGVSMRVEYQYGCLPADTVPEGNCWWRLLDSLPPEVQYKEIRHANQFGYQTKHGVPGKYLQRRLQVNGLRAVTDTHGPIVIQYFSVKESWIRHLKLVEEPSLPGFEDLLRIRVEPNTSPLAGKDEKIFRFGSHKWYG	soluble
MGHHHHHHSHMLQPPKIVAELSANHNQDLNLAKESLHAIKESGADFVKLQTYTPSCMTLNSKEDPFIIQGTLWDKENLYELYQKASTPLEWHAELFELARKLDLGIFSSPFSSQALELLESLNCPMYKIASFEIVDLDLIEKAARTQKPIILSSGIATHTELQDAISLCRRVNNFDITLLKCVSAYPSKIEDANLLSMVKLGEIFGVKFGLSDHTIGSLCPILATTLGASMIEKHFILNKSLQTPDSAFSMDFNGFKSMVEAIKQSVLALGEEEPRINPKTLEKRRFFARSLFVIKDIQKGEALTENNIKALRPNLGLHPKFYKEILGQKASKFLKANTPLSADDIERSL	soluble
MGSDKIHHHHHHMAATFGPRIARADENGQGSEHVALSWQKMDASGWRSGEASPAALHSDHHCRRGFAMSTRDADDRREYYRIEDTLALEFRPAGAVEDGLESEPGATLFSLLSDLHLMDYESQHLLRHISERDRTLANYLKVMNKRIDLLGQVMVQSLLKEIGEPRKVSLSEGGVSFRHDRALPVGQLLVLRMVLLPQGFGLELRARVIHAQPHDDEFEIGTEFEALSDAQRQLLARHILQKQAQQRRLARAGQGPLGEPGQPSST	not soluble
MSRLLSGGVGVIFAVLFSVNVGNARDQIQITGSSTVLPYQKIVAEIFGEIYPHFKIPVIESGGTGGGIKEFCRGIGENAIDIVNASRAMKLSELQSCFDAGVKDVEEIRIGYDGIVFATDINGPDWKLQPVDIYRALAARIMKDGKLQSNNVSKWSAVNSALPGWTIAAYIPGEKH	not soluble
MAHHHHHHMVSAPQIRSIPCGSGDFSVMKRSLIARWQSGVHTPHGVVYRGAKMKNWPEQRIPENFKFTEEQRFRTKAIPRDVGTIPRNFVLGVLYRHQPCEVGGLWEHCTNDPEIVLDSKRHLREVLKQAREEGFVTFERDAISNEWLCFLTRERYEEVQRIVTAKSEAVDAHSGLRGAAATETSTYAEKFREMNVEAKEAHARRLEEEVANTTRYLRRFQQREIDYLPYTDLNGKVNFMWWYETRDVQQRADEVLTDSSSSKALAGEEEHKAGSQLEATTASTS	soluble
MQLVREKEFVNQYHYDARNLEWEKENGTPETNFEVTFQLIDKDEQQKETVIVSVLQFVIVKEEFVISGVISQMVRILDRLVDKPSEFTQEEVESLAAPLLDMVKRLTYEVTEIALDRPGIHLEFKN	not soluble
MGSDKIHHHHHHMRIAPLPPLQCLVAFESAVRHASFTKAAAELHLTQSAISRQIAQLEDFLGRSLFVREHRALRLTIAGEGYAKHVQWLLASCSEATLDVMKRYGDMELTIACSSGVAVLWLTPRLGAFRAAHPNVRIRMIVRDGLASLSPAEFDVGLYYIRQRAEPHFTARRLFDEDVYPVCSPGYLAGRVLTPAGLVHETLLVQEDGQRQWMSWSEWFRLNHVQMPASPQAVVVNHYPQLVQMAILGQGVVLGWRHMIDACLSEGLLVRATQASASHGGGYYVVSPNDRSQNQAARLFTRWVFEQAEAQMGRAAS	not soluble

---

assay: soluble on expression in E. coli; label from the status in PepcDB or PDB records
metricName: soluble on expression in E. coli

MQQIFFKDPILGEVLFDQQTKWMYELVETEAFRRLRNIKQLGINFHFYPGGVHT	not soluble
MKVIEVTHPIQSKQYITEDVAMAFGFFDGMHKGHDKVFDILNEIAEARSLKKAVMTFDPHPSVVLNPKRKRTTYLTPLSDKIEKISQHDIDYCIVVNFSSRFANVSVEDFVENYIIKNNVKEVIAGFDFTFGKFGKGNMTVLQEYDAFNTTIVSKQEIENEKISTTSIRQDLINGELQKANDALGYIYSIKGTVVQGEKRGRTIGFPTANIQPSDDYLLPRKGVYAVSIEIGTENKLYRGVANIGVKPTFHDPNKAEVVIEVNIFDFEDNIYGERVTVNWHHFLRPEIKFDGIDPLVKQMNDDKSRAKYLLAVDFGDEVAYNI	not soluble
HITLNYLSKTLGMHQTINVILPEDKSYFDTNENAKPLKTMLLLHGLSSDTSSYMRYTSIERYANTHQLAVVMPNADHSFYSNMAYGHSYYDYILEVYDYVHQILPLSKKREDNFIAGHSMGGYGAIKFALTQSYRFSKAAMLSAPYDVSMIGQYQWYDFTPEAIVGNTQHVAGTSFDPYYLVEQAIDNGQALPQLYITCGTEDELYQGNIDFVNYLDEKGIPYQFKKAPGNHDYAFWDKAIEDVIDRF	not soluble
MERRKDTEVALAQRDTILQTILDASPDSIGIFNENMVYQACNKPFVNALGISEVSDLIGKRLQDVIPVEMYTRLETSDLHALRQAEPVRYIDKVVSSDGHITWFDVVKSPFKDKASGTNGVLIMARDIS	not soluble

---

assay: soluble on expression in E. coli; label from the status in PepcDB or PDB records
metricName: soluble on expression in E. coli

MSLSSDSQEIRRSILSKWHKTLSKYGNLFSSDTISGTSPPSVFVGSYNYPKVFVGPMVPPIHGDTSLLDSPEKWKGRSLEEIINFRLNLVRGIHKTGIEHTEGRYIENLQEITMSEKPTDLDLVFMKNTSSNISMDGESAPFGPTGEIKSAKFSGSSSTKPIEKIFYDKDMKAQDAVLKLYNSGIEISKIQKCFSIGMLGKKRKLVPTKWSITATDDIISKSIVKEILENSIIDTCKVFSYEHLGNVFSVILFPHRWIFEMIEGWYSNGILGFGSDSEDARGIDHPPRIAGAYFAAKLGVSEYLLKNKIQAGVLIFREIRPEYAIPVGVWQVREGIREAMKQKPQIVSDFNHALNLASAKTSVSKKEWIVNGDMINRVRQKTILDFMEGHHHHHH	not soluble
MKASTVLQIAYLVSQESKCCSWKVGAVIEKNGRIISTGYNGSPAGGVNCCDYAAEQGWLLNKPKHAIIQGHKPECVSFGSTDRFVLAKEHRSAHSEWSSKNEIHAELNAILFAAENGSSIEGATMYVTLSPCPDCAKAIAQSGIKKLVYCETYDKNKPGWDDILRNAGIEVFNVPKKNLNKLNWENINEFCGE	soluble
MKSHQFSTALCQNTTESNGQPLRFPSPAKLNLFLYINGKFPNGYHELQTLFQFLDFGDWLDISIREQDNQIVLTPEIPNLKTENNLIYRAAKLLQEKANIQLGANIHLDKILPMGGGVGGGSSNAATALVSLNYLWQANLSIDELAKLGLTLGADVPIFVHGHAAFAEGVGEKITYCEPAEKWFVILKPDDSISTAVIFQDPNLPRNTPKKSLAQLLSEPYKNDCEKVVINHYSNVEKALNWLLQYAPARLTGTGACVFAEFDHEAEAQAVFRQKPEAFFGFVAKGLNVSPLHAMLKQLSSTHTHRQSKPEVLLEHHHHHH	soluble
MAEIGIFVGTMYGNSLLVAEEAEAILTAQGHKATVFEDPELSDWLPYQDKYVLVVTSTTGQGDLPDSIVPLFQGIKDSLGFQPNLRYGVIALGDSSYVNFCNGGKQFDALLQEQSAQRVGEMLLIDASENPEPETESNPWVEQWGTLLS	soluble
MMRSHVITHFSMPNIDLHSHSTISDGMLSPSRLLAHAAVRGVNVLALTDHDDIAGLSEASRSAQQENITLIRGVEISVTWHGRTLHILGLGINPEHPPLTEGLKKIRDGRMDRARAIAAQLDKFGIHGSFEGASAQAGISRLIGRTHFARFLVSQGYAKNVKSVFKKYLVKGKPGHVSHVWVSLDEAIGWIRGSGGQAVIAHPARYKLSNDLLEQLLCEFRELGGAGIEVVSSSHTPEQTRQFAALATRMNLYASCGSDYHGPGESYFDLGRLPALPPECTPIWNEWEIPDYAETGATTLNEQSEQTGLQSPGKSV	not soluble
MADAAPQLGKRKRELDVEEAHAASTEEKEAGVGNGTCAPVRLPFSGFRLQKVLRESARDKIIFLHGKVNEASGDGDGEDAVVILEKTPFQVEQVAQLLTGSPELQLQFSNDIYSTYHLFPPRQLNDVKTTVVYPATEKHLQKYLRQDLRLIRETGDDYRNITLPHLESQSLSIQWVYNILDKKAEADRIVFENPDPSDGFVLIPDLKWNQQQLDDLYLIAICHRRGIRSLRDLTPEHLPLLRNILHQGQEAILQRYRMKGDHLRVYLHYLPSYYHLNVHFTALGFEAPGSGVERAHLLAEVIENLECDPRHYQQRTLTFALRADDPLLKLLQEAQQS	soluble
MEQLYPAPIKTVEEGSPAARAGVRPGDVLLRVNGQPVTDVLAYRHQLERGVVTLEVARPHEAPRVMTGVLEHHHHHH	not soluble
MIAASDLKAGMTFEQDGKLIKVMEASHHKPGKGNTVMRMKLKDVRTGSTTDTTMRPDEKVKKAHIDTKPVQYLYSQDDMAIFMDLETYEQYEVPTALIEEELKYLLENMEVKIQFYGEEVIGLTLPTTVILRVAETQPSIKGATVTGSGKPATMETGLVVNVPDFVEADELLEINTAEGTYLKRAK	not soluble
MAHHHHHHMSSSSSGQYSGSGGNRGSGFVHLNTPASIQYTAGKTLSLSALRQSKSRVECAVLPESMSVWRDAFQRYSKEEGYSSFAADIEDERTGNGPILPPLVPQRAGPVRRRAGRALVRTDAFFCASSSPAPLGTSASTAHTGADRPPLTDGAAAISSTATAASASSSSRLSDKGTTATSADSVADGSTGPTAKQQQEGIPIVSHHKLLGRQQFVYPDYDGVLSAGVVPQIVVTAEEEAEEAAAKAFYISPLTMTEEELAAFEELQGLWKSRARSHSFLGAQHRKAAKGAVDPSSSADVLEAGGAGLPKVRRCEGVTGGASLSARRGNEIDVPAYAEAETAVEEESKLDKELSEALRMADDLLRFA	not soluble
MGHHHHHHSHMNQSRSRSDGGSEETLPQDHNHHENERRWQQERLHREEAYYQFINELNDEDYRLMRDHNLLGTPGEITSEELQQRLDGVKEQLASQPDLRDGTNYRDSEVPRESSHEDSLLEWLNTFRRTGNATRSGQNGNQTWRAALPDTS	not soluble
MIKWPWKAQEITQNEDWPWDDALAIPLLVNLTAQEQARLIALAERFLQQKRLVALQGFELDSLKSARIALIFCLPILELGIEWLDGFHEVLIYPAPFVVDDEWEDDIGLVHSQRVVQSGQSWQQGPIILNWLDIQDSFDASGFNLIIHEVAHKLDMRNGDRASGIPFIPLRDVAGWEHDLHAAMNNIQDEIDLVGESAASIDAYAATDPAECFAVLSEYFFSAPELFAPRFPALWQRFCQFYRQDPSQRLRVSAAEGDYGEESEH	not soluble
